Target: T1, recombinant human PD-1 Fc chimera (human, UniProt Q15116 25-167)
T1 construct: Bought protein (R&D 1086-PD in the HTRF assay); also called human PD-1-hu Fc; huPD-1Fc; not shown: human Fc
T1 sequence (Q15116 25-167 limits assumed, change not shown): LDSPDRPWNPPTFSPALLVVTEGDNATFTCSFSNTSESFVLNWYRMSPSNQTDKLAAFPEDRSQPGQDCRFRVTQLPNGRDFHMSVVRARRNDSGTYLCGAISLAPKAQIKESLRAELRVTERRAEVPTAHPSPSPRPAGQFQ
Assay: SPR Biacore T200, single cycle kinetics, human PD-1-hu Fc amine coupled to CM5, 1:1 model
# koff annotations
Enter your answer as a number in s⁻¹; do not include the unit.

1.57b (VHH) VHH: QVQLVESGGGLVKPGGSLRLSCAASGFTFSDNSMTWMRQAPGKGLEWVSYISSGGGVIFYADSVKGRFTISRDNAKNSLYLQMNSLRADDTAVYYCAREAPLRLGESPHDAFDISGQGTMVTVSS | 6.68e-08
1.1b-4GS-1.1a (other, Biparatopic VH-linker-VH) QVQLVESGGGLVKPGGSLRLSCAASGFTFSDYTMTWMRQAPGKGLEWVSYISTGGTIKYYTDSVKGRFTISRDNAKNSLYLQMNSLRADDTAVYYCAREAPLRLGESPHDAFDIWGQGTMVTVSSGGGGSGGGGSGGGGSGGGGSEVQLLESGGGSVQPGRSLRLSCAASGFTFDDHAMHWVRQAPGKGLEWVSGISWNSGSMGYADSVKDRFTISRDNAKSSLYLQMNSLRAEDTALYYCVREKGPGLTGSTADYYGLDVWGQGTMVTVSS | 1.1e-05

Given item 1.92b-4GS-1.62a (other, Biparatopic VH-linker-VH; also called 1.92-4GS-1.62a; 1.92b-4gs-2.12a) EVQLVESGGGLVKPGGSLRLSCAASGFTFSDESMTWMRQAPGKGLEWVSYISSGGGVKFYADSVKGRFTISRDNAKNSLYLQMNSLRAEDTAVYYCAREAPLRLGESPHDAFDISGQGTMVTVSSGGGGSGGGGSGGGGSGGGGSEVQLVESGGGVVRPGGSLRLSCAASGFTFDDYAMSWVRQAPGKGLEWVSGITWNAGSTGYADSVKGRFTISRDNAKNSLYLQMNSLRAEDTALYYCVRDKYSYAWSYDDFDIWGQGTMVTVSS , the value recorded as its koff is 4.3e-06

Given item 1.1b-6GS-1.1a (other, Biparatopic VH-linker-VH) QVQLVESGGGLVKPGGSLRLSCAASGFTFSDYTMTWMRQAPGKGLEWVSYISTGGTIKYYTDSVKGRFTISRDNAKNSLYLQMNSLRADDTAVYYCAREAPLRLGESPHDAFDIWGQGTMVTVSSGGGGSGGGGSGGGGSGGGGSGGGGSGGGGSEVQLLESGGGSVQPGRSLRLSCAASGFTFDDHAMHWVRQAPGKGLEWVSGISWNSGSMGYADSVKDRFTISRDNAKSSLYLQMNSLRAEDTALYYCVREKGPGLTGSTADYYGLDVWGQGTMVTVSS , the value recorded as its koff is 6.39e-06

Given item 1.1a (VHH, also called Humabody 1.1a; VH single domain antibody 1.1a) VHH: EVQLLESGGGSVQPGRSLRLSCAASGFTFDDHAMHWVRQAPGKGLEWVSGISWNSGSMGYADSVKDRFTISRDNAKSSLYLQMNSLRAEDTALYYCVREKGPGLTGSTADYYGLDVWGQGTMVTVSS , the value recorded as its koff is 7.35e-05

Given item 1.1b-2GS-1.1a (other, Biparatopic VH-linker-VH; His tag implied by the assays; not in the chain) QVQLVESGGGLVKPGGSLRLSCAASGFTFSDYTMTWMRQAPGKGLEWVSYISTGGTIKYYTDSVKGRFTISRDNAKNSLYLQMNSLRADDTAVYYCAREAPLRLGESPHDAFDIWGQGTMVTVSSGGGGSGGGGSEVQLLESGGGSVQPGRSLRLSCAASGFTFDDHAMHWVRQAPGKGLEWVSGISWNSGSMGYADSVKDRFTISRDNAKSSLYLQMNSLRAEDTALYYCVREKGPGLTGSTADYYGLDVWGQGTMVTVSS , the value recorded as its koff is 1.08e-05

Given item 1.92b-4GS-1.39a (other, Biparatopic VH-linker-VH; built from its parts here because it is not clear whether 1112 is the protein or the nucleic acid) EVQLVESGGGLVKPGGSLRLSCAASGFTFSDESMTWMRQAPGKGLEWVSYISSGGGVKFYADSVKGRFTISRDNAKNSLYLQMNSLRAEDTAVYYCAREAPLRLGESPHDAFDISGQGTMVTVSSGGGGSGGGGSGGGGSGGGGSEVQLVESGGGLVQPGRSLRLSCAASGFTFDDYALHWVRQAPGKDLEWVSGISWNGGSYGYADSVKGRFTISRDNAKNSLYLQMNSLRAEDTALYYCVREKGPGLTGSTADYYGLDAWGQGTMVTVSS , the value recorded as its koff is 6.5e-06
